src = patent US11434205B2

- Tested on: rats
- procedure_text: Pharmacological characteristics at equivalent doses (2×ED50) in rats
- condition_details: 2×ED50, tail vein, DMSO solution (DMSO alone 10/10)
observable: Adverse reactions: Red urine (incidence)

Recorded results for 4 compounds are shown here.
> print(dat)
                                   compound   value.observed
1  C[C@H](c1ccccc1)n1c(Cl)nc(Cl)c1C(=O)OC1CSC1 [Compound E133]      urine (8/8)
2  CCCC(CCC)OC(=O)c1cncn1[C@H](C)c1ccccc1 [Compound C20]            (8/8)
3  C=C=CC1(OC(=O)c2c(F)ncn2[C@H](C)c2ccccc2)CCCCC1 [Compound E36]            (8/8)
4  C[C@H](c1ccccc1)n1cncc1C(=O)OC1(C2CO2)CCC1 (stereo partly shown) [Compound A20]  Red urine (8/8)

From here, focus on the item given below.
Request: GET /values?readout=Adverse reactions: Red urine (incidence)&item= CC#CC1(OC(=O)c2cncn2[C@H](C)c2ccccc2)CSC1 [Compound D29]
Result: (8/8)
